- studySystem: T1, CRBN, Q96SW2;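 also: pooled lentiviral library of zinc finger degron-EGFP fusions in mCherry-positive Jurkat cells, FACS-sorted after compound exposure, with degron abundance counted by next-generation sequencing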
- T1 chain: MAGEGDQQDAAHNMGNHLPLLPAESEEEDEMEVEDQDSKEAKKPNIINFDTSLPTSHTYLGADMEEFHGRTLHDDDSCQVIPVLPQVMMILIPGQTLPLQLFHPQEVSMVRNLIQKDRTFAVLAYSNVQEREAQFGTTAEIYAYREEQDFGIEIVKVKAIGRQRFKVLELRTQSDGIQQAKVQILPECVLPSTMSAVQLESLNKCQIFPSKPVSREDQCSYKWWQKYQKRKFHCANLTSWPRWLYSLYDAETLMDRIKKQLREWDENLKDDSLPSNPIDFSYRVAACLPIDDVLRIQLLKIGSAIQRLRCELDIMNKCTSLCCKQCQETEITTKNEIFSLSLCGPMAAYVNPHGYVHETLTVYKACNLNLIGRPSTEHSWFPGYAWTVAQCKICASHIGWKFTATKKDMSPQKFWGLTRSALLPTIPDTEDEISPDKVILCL
- assay: log2 fold change of degron read counts, EGFP-low vs EGFP+ sorted cells (limma voom), compound-induced degradation; higher = more compound-induced degradation of the degron-EGFP fusion; degrons are variants of IKZF1/3 zinc finger 2; compound dose not given here
- measurementContext: Jurkat; 18 h; compound: compound 19 (5-tert-butyl-thalidomide)
The full ranking holds about 8,300 sequences; the median of “log2 fold change of degron read counts, EGFP-low vs EGFP+ sorted cells (limma voom), compound-induced degradation” is about -1.1, and the highest 2% start at about 3.2. Many of the other results were omitted from the sample, so the highest values are more common in it than they were.
readoutType: log2 fold change of degron read counts
Give the figure only, with no unit attached.

Summary for this sequence, FICDVCGALFTQKGNLLRHIKL [46F_47I_49D_50V_52G_53A_54L_55F_67L_, Q9UKT9] : log2 fold change of degron read counts is -1.82

Summary for this sequence, FYCPICGRAFTQKGNLLRHIKL [46F_47Y_49P_50I_52G_53R_54A_55F_67L_, Q9UKT9] : log2 fold change of degron read counts is -3.1

Summary for this sequence, FGCEICGANFTQKGNLLRHIKL [46F_47G_49E_50I_52G_53A_54N_55F_67L_, Q9UKT9] : log2 fold change of degron read counts is 1.01

Summary for this sequence, FKCEICGANFTQKGNLLRHIKL [46F_47K_49E_50I_52G_53A_54N_55F_67L_, Q9UKT9] : log2 fold change of degron read counts is -1.06

Summary for this sequence, FYCNICGAVFTQKGNLLRHIKL [46F_47Y_49N_50I_52G_53A_54V_55F_67L_, Q9UKT9] : log2 fold change of degron read counts is 1.85

Summary for this sequence, FQCPVCGAVFTQKGNLLRHIKL [46F_47Q_49P_50V_52G_53A_54V_55F_67L_, Q9UKT9] : log2 fold change of degron read counts is -0.23

Summary for this sequence, LTCEICGFICTQKGNLLRHIKL [46L_47T_49E_50I_52G_53F_54I_55C_67L_, Q9UKT9] : log2 fold change of degron read counts is -0.462

Summary for this sequence, FRCEQCGAGFTQKGNLLRHIKL [46F_47R_49E_50Q_52G_53A_54G_55F_67L_, Q9UKT9] : log2 fold change of degron read counts is -0.467

Summary for this sequence, FECPICGRRFTQKGNLLRHIKL [46F_47E_49P_50I_52G_53R_54R_55F_67L_, Q9UKT9] : log2 fold change of degron read counts is -0.662

Summary for this sequence, FVCPVCGAVFTQKGNLLRHIKL [46F_47V_49P_50V_52G_53A_54V_55F_67L_, Q9UKT9] : log2 fold change of degron read counts is -0.832

Summary for this sequence, FLCEICGANFTQKGNLLRHIKL [46F_47L_49E_50I_52G_53A_54N_55F_67L_, Q9UKT9] : log2 fold change of degron read counts is 0.58

Summary for this sequence, FMCNVCGAQFTQKGNLLRHIKL [46F_47M_49N_50V_52G_53A_54Q_55F_67L_, Q9UKT9] : log2 fold change of degron read counts is -1.96

Summary for this sequence, FWCNQCGAEFTQKGNLLRHIKL [46F_47W_49N_50Q_52G_53A_54E_55F_67L_, Q9UKT9] : log2 fold change of degron read counts is -1.48

Summary for this sequence, FSCNVCGAYFTQKGNLLRHIKL [46F_47S_49N_50V_52G_53A_54Y_55F_67L_, Q9UKT9] : log2 fold change of degron read counts is -0.837

Summary for this sequence, FFCPQCGAVFTQKGNLLRHIKL [46F_47F_49P_50Q_52G_53A_54V_55F_67L_, Q9UKT9] : log2 fold change of degron read counts is 0.252

Summary for this sequence, FFCEICGANFTQKGNLLRHIKL [46F_47F_49E_50I_52G_53A_54N_55F_67L_, Q9UKT9] : log2 fold change of degron read counts is 3.08

Summary for this sequence, FYCEICGANFTQKGNLLRHIKL [46F_47Y_49E_50I_52G_53A_54N_55F_67L_, Q9UKT9] : log2 fold change of degron read counts is 3.74

Summary for this sequence, FNCEICGANFTQKGNLLRHIKL [46F_47N_49E_50I_52G_53A_54N_55F_67L_, Q9UKT9] : log2 fold change of degron read counts is 2.42

Summary for this sequence, FMCEICGRNFTQKGNLLRHIKL [46F_47M_49E_50I_52G_53R_54N_55F_67L_, Q9UKT9] : log2 fold change of degron read counts is -2.42

Summary for this sequence, FYCPICGRFFTQKGNLLRHIKL [46F_47Y_49P_50I_52G_53R_54F_55F_67L_, Q9UKT9] : log2 fold change of degron read counts is -0.827

Summary for this sequence, FFCNQCGHDFTQKGNLLRHIKL [46F_47F_49N_50Q_52G_53H_54D_55F_67L_, Q9UKT9] : log2 fold change of degron read counts is -3.06

Summary for this sequence, FRCPVCGANFTQKGNLLRHIKL [46F_47R_49P_50V_52G_53A_54N_55F_67L_, Q9UKT9] : log2 fold change of degron read counts is -0.729

Summary for this sequence, FECEICGANFTQKGNLLRHIKL [46F_47E_49E_50I_52G_53A_54N_55F_67L_, Q9UKT9] : log2 fold change of degron read counts is 0.0673

Summary for this sequence, FGCPVCGAVFTQKGNLLRHIKL [46F_47G_49P_50V_52G_53A_54V_55F_67L_, Q9UKT9] : log2 fold change of degron read counts is 3.56

Summary for this sequence, FQCPQCGAVFTQKGNLLRHIKL [46F_47Q_49P_50Q_52G_53A_54V_55F_67L_, Q9UKT9] : log2 fold change of degron read counts is -1.53

Summary for this sequence, FTCEICGRFFTQKGNLLRHIKL [46F_47T_49E_50I_52G_53R_54F_55F_67L_, Q9UKT9] : log2 fold change of degron read counts is -1.56

Summary for this sequence, FICNQCGHNFTQKGNLLRHIKL [46F_47I_49N_50Q_52G_53H_54N_55F_67L_, Q9UKT9] : log2 fold change of degron read counts is -2.7

Summary for this sequence, FMCPVCGAVFTQKGNLLRHIKL [46F_47M_49P_50V_52G_53A_54V_55F_67L_, Q9UKT9] : log2 fold change of degron read counts is -1.41

Summary for this sequence, FQCPQCGAYFTQKGNLLRHIKL [46F_47Q_49P_50Q_52G_53A_54Y_55F_67L_, Q9UKT9] : log2 fold change of degron read counts is -1.88
